# key: entry, value: melting point

Some entries whose results are on file:
> print(dat)
                                 mol.smiles     data.value
1  CCON=C(N)c1ccc(S(=O)(=O)NC)c(-c2nc3cc(C(F)(F)F)ccc3n2C)n1  173 to 174 °C
2  CCO/N=C(\N)c1cnc(S(=O)(=O)NC)c(-c2nc3cc(C(F)(F)F)ccc3n2C)n1  244 to 246 °C
3  CCON=C(N)c1cc(C)c(Cl)c(-c2nc3cc(C(F)(F)F)ccc3n2C)n1  144 to 145 °C
4  CCON=C(c1ccc(S(C)(=O)=O)c(-c2nc3cc(C(F)(F)F)ccc3n2C)n1)N(C)C  150 to 151 °C
5  CCON=C(NC)c1ccc(S(C)(=O)=O)c(-c2nc3cc(C(F)(F)F)ccc3n2C)n1  154 to 155 °C
6  CCO/N=C/c1ccc(C(=O)N(C)C)c(-c2nc3cc(SC(F)(F)F)ccc3n2C)n1  118 to 119 °C

Query: What value of melting point has been reported for the following molecule? `CCON=C(N)c1cc(C)c(S(C)(=O)=O)c(-c2nc3cc(C(F)(F)F)ccc3n2C)n1`
Result: 246 to 247 °C

Query: Item under review: `CCO/N=C(\C)c1ccc(C(=O)OC)c(-c2nc3cc(SC(F)(F)F)ccc3n2C)n1` . Reported melting point?
Result: 121 to 122 °C

Query: Entry under review: `CCO/N=C(\N)c1ncc(S(=O)(=O)NC)c(-c2nc3ccccc3n2C)n1` . Reported melting point?
Result: 222 to 223 °C

Query: Entry `CCON=C(N)c1ccc(S(C)(=O)=O)c(-c2nc3cc(C(F)(F)F)ccc3n2C)n1` : reported melting point = ?
Result: 149 to 150 °C

Query: What does the record list as melting point for `CCON=C(N)c1ccc(C(=O)OC)c(-c2nc3cc(C(F)(F)F)ccc3n2C)n1` ?
Result: 46 to 47 °C

Query: Given `CCO/N=C/c1ccc(C(=O)O)c(-c2nc3cc(SC(F)(F)F)ccc3n2C)n1` , state its recorded melting point.
Result: 195 to 196 °C
